# assayed_target: human CD33 on primary human monocyte-derived dendritic cells (human, UniProt P20138 18-364)
# Sequence (P20138 18-364): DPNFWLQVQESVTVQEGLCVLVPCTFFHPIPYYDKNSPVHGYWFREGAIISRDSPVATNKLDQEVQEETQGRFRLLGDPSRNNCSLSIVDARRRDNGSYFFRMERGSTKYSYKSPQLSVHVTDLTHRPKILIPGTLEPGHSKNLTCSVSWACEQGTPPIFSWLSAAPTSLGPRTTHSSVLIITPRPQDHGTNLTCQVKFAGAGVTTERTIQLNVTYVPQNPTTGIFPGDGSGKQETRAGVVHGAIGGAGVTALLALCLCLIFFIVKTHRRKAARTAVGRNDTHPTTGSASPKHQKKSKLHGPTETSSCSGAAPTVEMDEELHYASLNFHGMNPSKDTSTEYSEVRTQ
# test_name: cell-based or functional assay
Receptor downregulation (EC50) values for the binders below.
Reply numerically in nM, unit not repeated.

Field: example entries. Status: answers known.
binder: AB-14.7 (antibody, V domains shown) VH: QVQLVQSGAEVKKPGASVKVSCKASGYTFTDYNYHWVRQAPGQGLEWIGFIYPSNGITGYAQKFQGRVTMTVDTSTSTVYMELSSLRSEDTAVYYCARSDVDYFDYWGQGTLVTVSS VL: DIQMTQSPSSLSASVGDRVTITCRASQSVGTSTYSYMHWYQQKPGKAPKLLIKYASNLESGVPSRFSGSGSGTDFTLTISSLQPEDFATYYCQHSWEIPLTFGQGTKLEIK
unit_spec: nM
Receptor downregulation (EC50): 0.0351
--
binder: AB-14.5 (antibody, V domains shown) VH: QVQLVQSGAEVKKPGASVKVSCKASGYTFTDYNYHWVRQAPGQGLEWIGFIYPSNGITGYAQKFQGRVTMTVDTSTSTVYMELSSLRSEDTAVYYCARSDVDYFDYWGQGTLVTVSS VL: DIQMTQSPSSLSASVGDRVTITCRASQDVSTSTYSYMHWYQRKPGKAPKLLIKYASNLESGVPSRFSGSGSGTDFTLTISSLQPEDFATYYCQHSWEIPLTFGQGTKLEIK
unit_spec: nM
Receptor downregulation (EC50): 0.0342
--
binder: AB-H14 (antibody, V domains shown, Humanized variant of murine 2F5.1) VH: QVQLVQSGAEVKKPGASVKVSCKASGYTFTDYNLHWVRQAPGQGLEWIGFIYPSNGITGYAQKFQGRVTMTVDTSTSTVYMELSSLRSEDTAVYYCARSTVDYFDYWGQGTLVTVSS VL: DIQMTQSPSSLSASVGDRVTITCRASQSVSTSTYSYMHWYQQKPGKAPKLLIKYASNLESGVPSRFSGSGSGTDFTLTISSLQPEDFATYYCQHSWEIPLTFGQGTKLEIK
unit_spec: nM
Receptor downregulation (EC50): 0.151

Sample AB-14.10 (antibody, V domains shown) VH: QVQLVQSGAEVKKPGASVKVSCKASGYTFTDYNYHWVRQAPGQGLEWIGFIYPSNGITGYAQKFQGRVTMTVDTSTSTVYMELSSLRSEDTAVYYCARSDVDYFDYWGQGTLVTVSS VL: DIQMTQSPSSLSASVGDRVTITCRASQSVSASTYSYMHWYQQKPGKAPKLLIKYASNLESGVPSRFSGSGSGTDFTLTISSLQPEDLATYYCQHSWEIPLTFGQGTKLEIK — what was its Receptor downregulation (EC50)?
0.0494
